B1: Gamma-crystallin C, residues 4 to 79; numbered along this chain, P07315 (parent)
chain: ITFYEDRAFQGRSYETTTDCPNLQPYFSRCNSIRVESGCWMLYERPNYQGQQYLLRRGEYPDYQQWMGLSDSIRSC

- Variants of: B1
- assay remarks: abundance fitness (aPCA) (normalised: wild type 0, dead -1); higher = more abundant; growth selection in yeast, the domain comes from the species named
- recorded conditions: Homo sapiens
Outcome: rule met for abundance fitness of at least -0.1; rule not met for anything lower.

Prompt: Hi team, for `Q65I` , is the recorded abundance fitness at or above -0.1?
Completion: rule not met

Prompt: Form field: abundance fitness at least -0.1? Entry: `G50E`
Completion: rule not met

Prompt: hey, is abundance fitness for this one >= -0.1? `N31A`
Completion: rule not met

Prompt: Reported abundance fitness at or above -0.1? `N47R`
Completion: rule met

Prompt: Identify whether the reported abundance fitness of the following variant is -0.1 or greater: `C39Q`
Completion: rule met
